Test system: 361931-004-R-J1-PDC multicell spheroid viability
Procedure Text: Anticancer human tumor 361931-004-R-J1-PDC patient-derived colon adenocarcinoma cell line growth inhibition [PI3K]
Condition Set: curve of first compound; second compound 10 µM
Metric Name: log10(IC50) (log10 of the value in nM)
Each number you see is log10 of IC50, and the unit inside the log is nM.

>  <Compound>
Cn1ncc(Cl)c1-c1cc(C(=O)NC(CN)Cc2cccc(F)c2)sc1Cl (stereo unspecified) + Cc1nc(NC(=O)N2CCCC2C(N)=O)sc1-c1ccnc(C(C)(C)C(F)(F)F)c1

>  <Subject Of Test>
361931-004-R-J1-PDC multicell spheroid viability

>  <Metric Name>
log10(IC50)

>  <Recorded Result>
2.61

$$$$
>  <Compound>
Cn1cnc2c(F)c(Nc3ccc(Br)cc3Cl)c(C(=O)NOCCO)cc21 + CC(Nc1ncnc2nc[nH]c12)c1cc2cccc(Cl)c2c(=O)n1-c1ccccc1

>  <Subject Of Test>
361931-004-R-J1-PDC multicell spheroid viability

>  <Metric Name>
log10(IC50)

>  <Recorded Result>
3.22

$$$$
>  <Compound>
CCN1CCN(Cc2ccc(Nc3ncc(F)c(-c4cc(F)c5nc(C)n(C(C)C)c5c4)n3)nc2)CC1 + Cc1nc(NC(=O)N2CCCC2C(N)=O)sc1-c1ccnc(C(C)(C)C(F)(F)F)c1

>  <Subject Of Test>
361931-004-R-J1-PDC multicell spheroid viability

>  <Metric Name>
log10(IC50)

>  <Recorded Result>
1.28

$$$$
>  <Compound>
CC1(C)CCC(CN2CCN(c3ccc(C(=O)NS(=O)(=O)c4ccc(NCC5CCOCC5)c([N+](=O)[O-])c4)c(Oc4cnc5[nH]ccc5c4)c3)CC2)=C(c2ccc(Cl)cc2)C1 + CC(Nc1ncnc2nc[nH]c12)c1cc2cccc(Cl)c2c(=O)n1-c1ccccc1

>  <Subject Of Test>
361931-004-R-J1-PDC multicell spheroid viability

>  <Metric Name>
log10(IC50)

>  <Recorded Result>
3.70

$$$$

Lookup: log10(IC50) / 361931-004-R-J1-PDC multicell spheroid viability / Cn1ncnc1[C@H]1c2n[nH]c(=O)c3cc(F)cc(c23)N[C@@H]1c1ccc(F)cc1 + Cc1nc(NC(=O)N2CCCC2C(N)=O)sc1-c1ccnc(C(C)(C)C(F)(F)F)c1
1.68

Request: log10(IC50), test system 361931-004-R-J1-PDC multicell spheroid viability, entry CCCS(=O)(=O)Nc1ccc(F)c(C(=O)c2c[nH]c3ncc(-c4ccc(Cl)cc4)cc23)c1F + Cc1nc(NC(=O)N2CCCC2C(N)=O)sc1-c1ccnc(C(C)(C)C(F)(F)F)c1
2.80

Missing value: log10(IC50), 361931-004-R-J1-PDC multicell spheroid viability, entry CC(C)NCC(C(=O)N1CCN(c2ncnc3c2C(C)CC3O)CC1)c1ccc(Cl)cc1 (stereo unspecified) + CC(Nc1ncnc2nc[nH]c12)c1cc2cccc(Cl)c2c(=O)n1-c1ccccc1 . Fill in?
3.50

----------
Tested on: 361931-004-R-J1-PDC multicell spheroid viability
Procedure Text: Anticancer human tumor 361931-004-R-J1-PDC cell line growth inhibition [PI3K];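 note: spheroids exposed to agents for seven days before readout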
Condition Set: compound 1 µM; stronger effect = lower value
Metric Name: viability, T/C

Worked cases, answers included:
>  <Compound>
CC(Nc1ccc2c(c1)OCCn1cc(N3C(=O)OCC3C(F)F)nc1-2)C(N)=O (stereo not drawn)

>  <Subject Of Test>
361931-004-R-J1-PDC multicell spheroid viability

>  <viability, T/C>
88.1% [middle of 8 runs]

$$$$
>  <Compound>
CC1(C)CCC(CN2CCN(c3ccc(C(=O)NS(=O)(=O)c4ccc(NCC5CCOCC5)c([N+](=O)[O-])c4)c(Oc4cnc5[nH]ccc5c4)c3)CC2)=C(c2ccc(Cl)cc2)C1

>  <Subject Of Test>
361931-004-R-J1-PDC multicell spheroid viability

>  <viability, T/C>
102% [middle of 4 runs]

$$$$
>  <Compound>
C[C@@H](NC(=O)c1ncnc(N)c1Cl)c1ncc(C(=O)Nc2cc(C(F)(F)F)c(Cl)cn2)s1

>  <Subject Of Test>
361931-004-R-J1-PDC multicell spheroid viability

>  <viability, T/C>
99.6% [middle of 4 runs]

$$$$
>  <Compound>
Cc1nc(NC(=O)N2CCCC2C(N)=O)sc1-c1ccnc(C(C)(C)C(F)(F)F)c1 (stereo not drawn)

>  <Subject Of Test>
361931-004-R-J1-PDC multicell spheroid viability

>  <viability, T/C>
91.2% [middle of 8 runs]

$$$$
>  <Compound>
CC(Nc1ncnc2nc[nH]c12)c1cc2cccc(Cl)c2c(=O)n1-c1ccccc1 (stereo not drawn)

>  <Subject Of Test>
361931-004-R-J1-PDC multicell spheroid viability

>  <viability, T/C>
104% [middle of 8 runs]

$$$$

Quick one: viability, T/C for C=CC(=O)N1CCN(c2nc(=O)n(-c3c(C)ccnc3C(C)C)c3nc(-c4c(O)cccc4F)c(F)cc23)C(C)C1 (stereo not drawn) ?
103% [middle of 4 runs]

Consider the compound CC(Cn1ccc(-c2ccc(C#N)c(Cl)c2)n1)NC(=O)c1cc(C(C)O)[nH]n1 (stereo not drawn) and give its measured viability, T/C.
104% [middle of 4 runs]

Return reported viability, T/C; argument: Cn1nccc1Nc1nccc(-c2ccn(C(CO)c3ccc(Cl)c(F)c3)c(=O)c2)n1 (stereo not drawn)
95.2% [middle of 4 runs]

----------
Test system: 361931-004-R-J1-PDC multicell spheroid viability
Procedure Text: Anticancer human tumor 361931-004-R-J1-PDC cell line growth inhibition [PI3K];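 note: spheroids exposed to agents for seven days before readout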
Condition Set: second compound 0.0316 µM; first compound 0.0316 µM; stronger effect = lower value
Metric Name: viability, T/C (%)
Please reply with the bare figure in % and do not write the unit itself.

Give its viability, T/C value. Item: Cn1ncc(Cl)c1-c1cc(C(=O)NC(CN)Cc2cccc(F)c2)sc1Cl (stereo unspecified) + CC(Nc1ncnc2nc[nH]c12)c1cc2cccc(Cl)c2c(=O)n1-c1ccccc1
95.2

Quick one: viability, T/C for Cn1ncc(Cl)c1-c1cc(C(=O)NC(CN)Cc2cccc(F)c2)sc1Cl (stereo unspecified) + Cc1nc(NC(=O)N2CCCC2C(N)=O)sc1-c1ccnc(C(C)(C)C(F)(F)F)c1 ?
98.5

Fill in: viability, T/C of CNC(=O)c1ccc(N2C(=S)N(c3ccc(C#N)c(C(F)(F)F)c3)C(=O)C2(C)C)cc1F + CC(Nc1ncnc2nc[nH]c12)c1cc2cccc(Cl)c2c(=O)n1-c1ccccc1 is ___
97.8

Given the entry CC(=O)c1c(C)c2cnc(Nc3ccc(N4CCNCC4)cn3)nc2n(C2CCCC2)c1=O + Cc1nc(NC(=O)N2CCCC2C(N)=O)sc1-c1ccnc(C(C)(C)C(F)(F)F)c1 , report its measured viability, T/C.
99.6

Returns the measured viability, T/C for the input molecule. Input: CC(Cn1ccc(-c2ccc(C#N)c(Cl)c2)n1)NC(=O)c1cc(C(C)O)[nH]n1 (stereo unspecified) + COc1c(OCCCN2CCOCC2)ccc2c3n(c(=NC(=O)c4cnc(N)nc4)nc12)CCN3
95.1

Return reported viability, T/C; argument: C=CC(=O)N1CCN(c2nc(=O)n(-c3c(C)ccnc3C(C)C)c3nc(-c4c(O)cccc4F)c(F)cc23)C(C)C1 (stereo unspecified) + CC(Nc1ncnc2nc[nH]c12)c1cc2cccc(Cl)c2c(=O)n1-c1ccccc1
102

----------
System: 361931-004-R-J1-PDC multicell spheroid viability
Procedure Text: Anticancer human tumor 361931-004-R-J1-PDC cell line growth inhibition [PI3K];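 note: spheroids exposed to agents for seven days before readout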
Condition Set: second compound 1 µM; first compound 0.1 µM; stronger effect = lower value
Metric Name: viability, T/C (%)
Give the value in % but do not write % after it.

Example compounds with recorded viability, T/C:
>  <Compound>
CCCS(=O)(=O)Nc1ccc(F)c(C(=O)c2c[nH]c3ncc(-c4ccc(Cl)cc4)cc23)c1F + Cc1nc(NC(=O)N2CCCC2C(N)=O)sc1-c1ccnc(C(C)(C)C(F)(F)F)c1

>  <Unit Tag>
%

>  <viability, T/C>
88.8

$$$$
>  <Compound>
CC(C)n1nc(-c2ccc3oc(N)nc3c2)c2c(N)ncnc21 + CC(Nc1ncnc2nc[nH]c12)c1cc2cccc(Cl)c2c(=O)n1-c1ccccc1

>  <Unit Tag>
%

>  <viability, T/C>
72.3

$$$$
>  <Compound>
Cn1ncc(Cl)c1-c1cc(C(=O)NC(CN)Cc2cccc(F)c2)sc1Cl (stereo unspecified) + CC(Nc1ccc2c(c1)OCCn1cc(N3C(=O)OCC3C(F)F)nc1-2)C(N)=O

>  <Unit Tag>
%

>  <viability, T/C>
79.4

$$$$
>  <Compound>
CCN1CCN(Cc2ccc(Nc3ncc(F)c(-c4cc(F)c5nc(C)n(C(C)C)c5c4)n3)nc2)CC1 + Cc1nc(NC(=O)N2CCCC2C(N)=O)sc1-c1ccnc(C(C)(C)C(F)(F)F)c1

>  <Unit Tag>
%

>  <viability, T/C>
74.3

$$$$
>  <Compound>
CC1(C)CCC(Nc2ncc(C(F)(F)F)c(-c3c[nH]c4c(P(C)(C)=O)c(C#N)ccc34)n2)CN1 (stereo unspecified) + CC(Nc1ccc2c(c1)OCCn1cc(N3C(=O)OCC3C(F)F)nc1-2)C(N)=O

>  <Unit Tag>
%

>  <viability, T/C>
52.5

$$$$

For the next question, use this compound.
Checklist item: viability, T/C tested on 361931-004-R-J1-PDC multicell spheroid viability, entry CC1(C)CCC(Nc2ncc(C(F)(F)F)c(-c3c[nH]c4c(P(C)(C)=O)c(C#N)ccc34)n2)CN1 (stereo unspecified) + CC(Nc1ncnc2nc[nH]c12)c1cc2cccc(Cl)c2c(=O)n1-c1ccccc1 , value?
101
